Target of assay: the molecule itself
Experiment: dynamic light scattering (DLS); light (L) state: immediately after 1 min of blue light, 30-60 µM protein, 25 °C, hydrodynamic radius extrapolated to 0 µM protein; monomer to dimer

{"Protein": "Photozipper (PZ) N218A mutant (domain or fragment, Vaucheria frigida, UniProt A8QW55 113-348, looked up, aureochrome-1 of Vaucheria frigida (VfAUREO1), G113-K348 with C162S and C182S (opZL gene), plus N218A; also called hinge mutant) GSISSELTEAQKVERRERNREHAKRSRVRKKFLLESLQQSVNELNHENNSLKESIREHLGPRGDSLIAQSSPEADTLLTDNPSKANRILEDPDYSLVKALQMAQQAFVITDASLPDNPIVYASRGFLTLTGYSLDQILGRNCRFLQGPETDPRAVDKIRNAITKGVDTSVCLLNYRQDGTTFWNLFFVAGLRDSKGNIVNYVGVQSKVSEDYAKLLVNEQNIEYKGVRTSNMLRRK", "binding result": "binds"}
